Here the recorded amyloid nucleation score is given for each entry.
test: amyloid nucleation score (Sup35N fusion, yeast selection) (log enrichment); library NNK2; higher = more nucleation; inactive = no reads after selection;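 also: zero at mode of non-aggregating sequences after 7 days selection at 30°C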
Give the figure by itself; no unit, no explanation.

Please review the following examples before continuing.
[
  {
    "substance": "LDSWRPN",
    "amyloid nucleation score": -0.393
  },
  {
    "substance": "PYYYRLDFWHHNKKYNFGYY",
    "amyloid nucleation score": -1.16
  },
  {
    "substance": "WVGSCKNVSFMQVIVWIVRL",
    "amyloid nucleation score": -0.121
  }
]

Query substance follows.
Qu. Please give the measured amyloid nucleation score for this substance: `PFACYGFCRM`
Ans. -1.29

----------
test: amyloid nucleation score (Sup35N fusion, yeast selection) (log enrichment); library NNK1; higher = more nucleation; inactive = no reads after selection

[
  {
    "substance": "SFIDDCP",
    "amyloid nucleation score": "inactive"
  },
  {
    "substance": "VMLVVMGLFELFWLSNVV",
    "amyloid nucleation score": "inactive"
  },
  {
    "substance": "GHVVLFLLYDLSFYSNIFCA",
    "amyloid nucleation score": 0.712
  },
  {
    "substance": "WCISTIGWRTDGCD",
    "amyloid nucleation score": "inactive"
  }
]

----------
test: amyloid nucleation score (Sup35N fusion, yeast selection) (log enrichment); library NNK2; higher = more nucleation; inactive = no reads after selection
measurement.name: amyloid nucleation score
Give the figure by itself; no unit, no explanation.

Please review the following examples before continuing.
[
  {
    "substance": "YNTPIIPAWVFSFHQWPEAF",
    "amyloid nucleation score": -1.6
  },
  {
    "substance": "WWVKTVLFKK",
    "amyloid nucleation score": -0.947
  }
]

Qu. Please give the measured amyloid nucleation score for this substance: `RVDLVDSSICADANLLG`
Ans. 1.17

Qu. Please give the measured amyloid nucleation score for this substance: `HTAMCAVSGFRNIWSKPVKF`
Ans. -0.817

Qu. Please give the measured amyloid nucleation score for this substance: `LHSYWH`
Ans. 0.121

Qu. Please give the measured amyloid nucleation score for this substance: `VLLSITSRRVMPTSKI`
Ans. 0.594

Qu. Please give the measured amyloid nucleation score for this substance: `ILSARRCFAQMVFVLYQNLV`
Ans. -0.171

----------
test: amyloid nucleation score (Sup35N fusion, yeast selection) (log enrichment); library NNK1; higher = more nucleation; inactive = no reads after selection
The threshold is inclusive: amyloid nucleation score of exactly 0.02 counts as Fulfilled; values below receive Not fulfilled.

Record excerpt, results attached:
[
  {
    "substance": "SQYSADSVHGCHLSVSPTWF",
    "label.value": "Fulfilled"
  },
  {
    "substance": "LFKYYNWVGTLVTYIMIYVW",
    "label.value": "Not fulfilled"
  },
  {
    "substance": "HGGKCLSMRYRDCALWTFQG",
    "label.value": "Fulfilled"
  },
  {
    "substance": "LVFTMWLPKRDACPDLTTMM",
    "label.value": "Fulfilled"
  }
]

Qu. Does `KYIRISVDGIRFKEWCEFGS` have a reported amyloid nucleation score of at least 0.02?
Ans. Fulfilled

Qu. Does `VNVTCMFWD` have a reported amyloid nucleation score of at least 0.02?
Ans. Fulfilled

Qu. Does `YQDAGVLGRLPHLFTNGSFT` have a reported amyloid nucleation score of at least 0.02?
Ans. Fulfilled

----------
test: amyloid nucleation score (Sup35N fusion, yeast selection) (log enrichment); library NNK3; higher = more nucleation; inactive = no reads after selection
measurement.name: amyloid nucleation score

Please review the following examples before continuing.
[
  {
    "residues": "YLTSFRFYVFTFR",
    "amyloid nucleation score": "inactive"
  },
  {
    "residues": "DFYFRVIVVGGHCVSDTSFL",
    "amyloid nucleation score": "inactive"
  },
  {
    "residues": "IDVTQERRVGDSTCALGTH",
    "amyloid nucleation score": -0.168
  },
  {
    "residues": "ILKMFTSGYCRVLWDLVVMV",
    "amyloid nucleation score": "inactive"
  }
]

Query sequence follows.
Qu. Please give the measured amyloid nucleation score for this sequence: `VDMRSDDLIMQFWQLLSDDV`
Ans. inactive

----------
test: amyloid nucleation score (Sup35N fusion, yeast selection) (log enrichment); library NNK1; higher = more nucleation; inactive = no reads after selection
measurement.name: amyloid nucleation score
Give the figure by itself; no unit, no explanation.

[
  {
    "substance": "CQRAFI",
    "amyloid nucleation score": -0.041
  }
]

Qu. Please give the measured amyloid nucleation score for this substance: `PITMQSMSFFRRVLLVFFLY`
Ans. 0.813

Qu. Please give the measured amyloid nucleation score for this substance: `LAYSNWALSCGIHIFRVTTS`
Ans. 0.792

----------
test: amyloid nucleation score (Sup35N fusion, yeast selection) (log enrichment); library NNK1; higher = more nucleation; inactive = no reads after selection
measurement.name: amyloid nucleation score
Give the figure by itself; no unit, no explanation.

[
  {
    "residues": "THAMCRYQSHGKLLSSGADS",
    "amyloid nucleation score": 0.781
  },
  {
    "residues": "NVLWGCQPNFVWDAWLRTEH",
    "amyloid nucleation score": 0.777
  }
]

Query sequence follows.
Qu. Please give the measured amyloid nucleation score for this sequence: `IYCHWNGFRGPYVIPRGCVV`
Ans. 0.819

----------
test: amyloid nucleation score (Sup35N fusion, yeast selection) (log enrichment); library NNK1; higher = more nucleation; inactive = no reads after selection
measurement.name: amyloid nucleation score
Give the figure by itself; no unit, no explanation.

Please review the following examples before continuing.
[
  {
    "substance": "GHSSRLRFT",
    "amyloid nucleation score": -0.42
  },
  {
    "substance": "VTMVGRSLKLLMTYETFNTW",
    "amyloid nucleation score": -0.21
  },
  {
    "substance": "TSRFSFCGS",
    "amyloid nucleation score": 1.85
  },
  {
    "substance": "AECLDPMNAVTVCRGSWL",
    "amyloid nucleation score": 0.101
  },
  {
    "substance": "DYNWSCFH",
    "amyloid nucleation score": 1.28
  },
  {
    "substance": "KKTGVVGVYK",
    "amyloid nucleation score": -1.26
  },
  {
    "substance": "KGDMWMGPNESWVKVNLYRV",
    "amyloid nucleation score": 0.039
  },
  {
    "substance": "GNNLHLRS",
    "amyloid nucleation score": -0.121
  },
  {
    "substance": "ASMPAFAT",
    "amyloid nucleation score": 0.413
  },
  {
    "substance": "ACYGLIDQLFQLANPYRTAM",
    "amyloid nucleation score": 0.412
  }
]

Qu. Please give the measured amyloid nucleation score for this substance: `SQLVHERNSVGFEIVWMNHL`
Ans. -0.249

Qu. Please give the measured amyloid nucleation score for this substance: `HTISENRSGLVTP`
Ans. -0.966

Qu. Please give the measured amyloid nucleation score for this substance: `WYHFVSGAVPHGSNEPKEFN`
Ans. -1

----------
test: amyloid nucleation score (Sup35N fusion, yeast selection) (log enrichment); library NNK3; higher = more nucleation; inactive = no reads after selection
measurement.name: amyloid nucleation score

Please review the following examples before continuing.
[
  {
    "substance": "TWQVFSASVTVSLSYTSK",
    "meas.value": "inactive"
  },
  {
    "substance": "SVTLRATGSGNRRYDAIRNY",
    "meas.value": "inactive"
  },
  {
    "substance": "IGKFPDRCTFVQTKYFYVRS",
    "meas.value": 1.48
  },
  {
    "substance": "TKSPSGTHFLLVRFWSRCGR",
    "meas.value": "inactive"
  },
  {
    "substance": "CFCQVSKANWLNR",
    "meas.value": "inactive"
  },
  {
    "substance": "WGMICIVYCVGIDMWLYVKC",
    "meas.value": "inactive"
  },
  {
    "substance": "FFECSRRSSVLVQMS",
    "meas.value": "inactive"
  },
  {
    "substance": "AWCKGV",
    "meas.value": "inactive"
  },
  {
    "substance": "CEFTYGKDAKVRTEAYHAYW",
    "meas.value": "inactive"
  },
  {
    "substance": "DYSHLCSNIQGIAFVVVIQN",
    "meas.value": "inactive"
  }
]

Qu. Please give the measured amyloid nucleation score for this substance: `PRYAVALSLD`
Ans. inactive

Qu. Please give the measured amyloid nucleation score for this substance: `SLFVLCFH`
Ans. 0.717

Qu. Please give the measured amyloid nucleation score for this substance: `ANVCGVL`
Ans. inactive

Qu. Please give the measured amyloid nucleation score for this substance: `AFRTFSFLGITS`
Ans. inactive

Qu. Please give the measured amyloid nucleation score for this substance: `FCLRLTYVRS`
Ans. 0.757

Qu. Please give the measured amyloid nucleation score for this substance: `RLINVMVCYLLEGCQGLLL`
Ans. 1.67

Qu. Please give the measured amyloid nucleation score for this substance: `KFPFSGPSRMTRRVMQRALL`
Ans. inactive

Qu. Please give the measured amyloid nucleation score for this substance: `NKMDSKYPGRLCLMWGW`
Ans. 0.48

Qu. Please give the measured amyloid nucleation score for this substance: `MHYMRFLWSGLLWASVETFV`
Ans. inactive

Qu. Please give the measured amyloid nucleation score for this substance: `AHKIVFELTYTVLS`
Ans. inactive

Qu. Please give the measured amyloid nucleation score for this substance: `TWYVLSNDNSCVYTGPTCQ`
Ans. inactive

Qu. Please give the measured amyloid nucleation score for this substance: `PLFGRCHRWGVTMQYSLLIG`
Ans. inactive

Qu. Please give the measured amyloid nucleation score for this substance: `HYWEVYLGTCLRAQDVQER`
Ans. 1.57
